Every entry's value here was drawn from the RepoRT retention time repository.

Measured LC retention time by item
Assay: HILIC, Waters Atlantis Premier BEH Z-HILIC, 100 × 2.1 mm, 1.7 µm, 40 °C, 0.16 mL/min, estimated dead time 1.4 min; A: water + 20 mM ammonium carbonate + 5 µM medronic acid; B: 10% water + 90% acetonitrile + 2 mM ammonium carbonate + 0.5 µM medronic acid; gradient (min/%B) 0/97 18/55 18.1/20 21.5/20 22/97 23.5/97 25.5/97
Settings: stereoisomer not certain
Give just the numeric value; min need not be written.

- Compound: "O=P(O)(O)OCC1OC(O)(COP(=O)(O)O)C(O)C1O (stereo not given) [Fructose-1,6-bisphosphate]"
  Reading unit: "min"
  Observed value: 15.5
- Compound: "O=C(CO)C(O)C(O)C(O)COP(=O)(O)O (stereo not given) [Fructose 6-phosphate]"
  Reading unit: "min"
  Observed value: 11.5
- Compound: "CC(O)C(=O)O (stereo not given) [Lactic Acid]"
  Reading unit: "min"
  Observed value: 3.29
- Compound: "OCC1OC(O)C(O)C(O)C1O (stereo not given) [Hexose]"
  Reading unit: "min"
  Observed value: 7.87
- Compound: "CCC(C)C(N)C(=O)O (stereo not given) [Isoleucine]"
  Reading unit: "min"
  Observed value: 6.73

Ask: Quick one: LC retention time for NC(=O)CCC(N)C(=O)O (stereo not given) [Glutamine] ?
Result: 10.6

Ask: Quick one: LC retention time for O=C(O)C(CO)OP(=O)(O)O (stereo not given) [Phosphoglyceric acid A] ?
Result: 12.6

Ask: Quick one: LC retention time for O=C(O)CCC(=O)O [Succinic Acid] ?
Result: 9.71

Ask: Quick one: LC retention time for CC(=O)SCCNC(=O)CCNC(=O)C(O)C(C)(C)COP(=O)(O)OP(=O)(O)OCC1OC(n2cnc3c(N)ncnc32)C(O)C1OP(=O)(O)O (stereo not given) [Acetyl-CoA] ?
Result: 10.4

Ask: Quick one: LC retention time for NC(=O)c1ccc[n+](C2OC(COP(=O)(O)OP(=O)(O)OCC3OC(n4cnc5c(N)ncnc54)C(OP(=O)(O)O)C3O)C(O)C2O)c1 (stereo not given) [NADP] ?
Result: 13.3

Ask: Quick one: LC retention time for Nc1ncnc2c1ncn2C1OC(COP(=O)(O)OP(=O)(O)OP(=O)(O)O)C(O)C1O (stereo not given) [ATP] ?
Result: 13.3

Ask: Quick one: LC retention time for C[N+](C)(C)CC(O)CC(=O)[O-] (stereo not given) [Carnitine] ?
Result: 10.1

Ask: Quick one: LC retention time for O=C(O)CCC(=O)C(=O)O [2-Oxoglutaric acid] ?
Result: 9.15

Ask: Quick one: LC retention time for Nc1ncnc2c1ncn2C1OC(COP(=O)(O)O)C(O)C1O (stereo not given) [AMP] ?
Result: 9.68

Ask: Quick one: LC retention time for C=C(OP(=O)(O)O)C(=O)O [PEP] ?
Result: 13.4
